# target-entity: CYP1A2 (Homo sapiens)
# Sequence (P05177 whole entry): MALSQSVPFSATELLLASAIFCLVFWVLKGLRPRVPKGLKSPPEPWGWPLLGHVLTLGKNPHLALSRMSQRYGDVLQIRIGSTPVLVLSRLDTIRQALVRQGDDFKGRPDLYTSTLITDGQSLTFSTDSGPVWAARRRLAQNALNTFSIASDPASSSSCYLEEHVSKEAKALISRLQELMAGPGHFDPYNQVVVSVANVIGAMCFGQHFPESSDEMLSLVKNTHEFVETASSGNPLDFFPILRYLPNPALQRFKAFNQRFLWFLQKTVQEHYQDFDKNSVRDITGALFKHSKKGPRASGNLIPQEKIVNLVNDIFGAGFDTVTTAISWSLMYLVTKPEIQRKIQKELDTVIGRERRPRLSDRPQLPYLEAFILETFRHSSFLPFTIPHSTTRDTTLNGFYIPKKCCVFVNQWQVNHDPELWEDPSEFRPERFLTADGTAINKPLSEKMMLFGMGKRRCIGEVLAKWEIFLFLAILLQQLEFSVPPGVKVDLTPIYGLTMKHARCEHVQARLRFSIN
# test-name: in vitro
# condition-label: microsomes, pH 7.4
metric-name: activity at 0.0412 µM (%)
Express your answer in %, writing the number without its unit.

Provide one value: measured activity at 0.0412 µM of "O=C(O)c1cc(-c2ccc(/C=C3\SC(=S)N(CCc4ccccc4)C3=O)o2)ccc1Cl"
96.7

* * *

# target-entity: CYP2C9 (Homo sapiens)
# test-name: in vitro
# condition-label: microsomes, pH 7.4
metric-name: activity at 0.0412 µM
Please answer using the number first and the unit second.

Provide one value: measured activity at 0.0412 µM of O=C(O)c1cc(-c2ccc(/C=C3\SC(=S)N(CCc4ccccc4)C3=O)o2)ccc1Cl [NBCoV1]
98.2%

* * *

# target-entity: CYP3A (Homo sapiens, UniProt P08684)
# Sequence (P08684 2-503): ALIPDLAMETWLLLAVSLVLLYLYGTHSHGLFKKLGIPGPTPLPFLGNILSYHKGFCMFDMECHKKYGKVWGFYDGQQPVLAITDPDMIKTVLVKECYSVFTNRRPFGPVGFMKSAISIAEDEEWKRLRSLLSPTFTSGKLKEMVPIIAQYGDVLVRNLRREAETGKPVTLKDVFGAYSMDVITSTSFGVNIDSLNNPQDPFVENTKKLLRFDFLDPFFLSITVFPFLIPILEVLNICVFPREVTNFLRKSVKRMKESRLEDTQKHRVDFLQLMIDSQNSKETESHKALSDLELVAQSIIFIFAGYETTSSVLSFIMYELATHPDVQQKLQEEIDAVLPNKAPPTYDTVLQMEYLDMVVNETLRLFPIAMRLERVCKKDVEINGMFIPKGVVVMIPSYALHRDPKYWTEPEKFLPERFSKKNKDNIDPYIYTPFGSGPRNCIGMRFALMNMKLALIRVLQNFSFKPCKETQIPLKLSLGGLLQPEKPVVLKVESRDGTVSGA
# test-name: in vitro
# condition-label: microsomes, pH 7.4, % of Control Enzyme Activity, 0.123 μM, n=1
metric-name: activity at 0.123 µM

Provide one value: measured activity at 0.123 µM of "O=C(O)c1cc(-c2ccc(/C=C3\SC(=S)N(CCc4ccccc4)C3=O)o2)ccc1Cl"
94.5%

* * *

# System: pseudovirus NL4-3ΔEnv-NanoLuc/SARS-CoV
# test-name: microbe, parasite or virus in culture
# Type: cell-based
# condition-label: Severe acute respiratory syndrome coronavirus, 293T/ACE2; n=3
Catalogue of compounds with associated log10 of IC50
Scale: decimal log of IC50, IC50 in nM.

Some solved entries appear below for comparison.
input_smiles=O=C(O)c1cccc(-c2ccc(/C=C3\SC(=S)N(CCc4ccccc4)C3=O)o2)c1F metric_name="log10 of IC50" experimental_value=2.05
input_smiles=Cc1c(C(=O)O)cccc1-c1ccc(/C=C2\SC(=S)N(CCc3ccccc3)C2=O)o1 metric_name="log10 of IC50" experimental_value=3.27
input_smiles=O=C(O)c1cc(-c2ccc(/C=C3\SC(=S)N(CCc4ccccc4)C3=O)o2)ccc1F metric_name="log10 of IC50" experimental_value=1.25
input_smiles=CCc1ccc(-c2ccc(/C=C3\SC(=S)N(CCc4ccccc4)C3=O)o2)cc1C(=O)O metric_name="log10 of IC50" experimental_value=2.24
input_smiles=O=C(O)c1cc(-c2ccc(/C=C3\SC(=S)N(CCc4ccccc4)C3=O)o2)ccc1Br metric_name="log10 of IC50" experimental_value=2.11

Provide one value: measured log10 of IC50 of "Cc1ccc(-c2ccc(/C=C3\SC(=S)N(CCc4ccccc4)C3=O)o2)cc1C(=O)O"
1.90

Provide one value: measured log10 of IC50 of "Cc1c(C(=O)O)cncc1-c1ccc(/C=C2\SC(=S)N(CCc3ccccc3)C2=O)o1"
2.34

* * *

# target-entity: CYP2C9 (Homo sapiens, UniProt P11712)
# Sequence (P11712 whole entry): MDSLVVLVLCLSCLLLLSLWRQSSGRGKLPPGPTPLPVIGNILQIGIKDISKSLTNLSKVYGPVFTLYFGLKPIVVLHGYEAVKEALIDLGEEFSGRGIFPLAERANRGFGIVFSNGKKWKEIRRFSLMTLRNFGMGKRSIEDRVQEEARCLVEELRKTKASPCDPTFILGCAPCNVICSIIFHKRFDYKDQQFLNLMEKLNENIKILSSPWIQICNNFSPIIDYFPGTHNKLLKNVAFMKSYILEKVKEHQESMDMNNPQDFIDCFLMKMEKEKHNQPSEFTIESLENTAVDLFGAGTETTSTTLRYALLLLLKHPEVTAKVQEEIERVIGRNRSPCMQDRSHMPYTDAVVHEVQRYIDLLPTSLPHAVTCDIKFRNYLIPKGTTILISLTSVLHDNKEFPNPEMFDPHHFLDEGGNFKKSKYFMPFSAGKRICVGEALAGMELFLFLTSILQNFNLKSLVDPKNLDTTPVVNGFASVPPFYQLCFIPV
# test-name: biochemical
metric-name: pIC50
To interpret pIC50, take it as minus log10 of a concentration measured in moles per litre.

Please respond with reported pIC50 (system CYP2C9 (Homo sapiens, UniProt P11712)) for O=C(O)c1cc(-c2ccc(/C=C3\SC(=S)N(CCc4ccccc4)C3=O)o2)ccc1Cl [NBCoV1] .
5.30

* * *

# target-entity: UniProt:P20813
# Sequence (P20813 whole entry): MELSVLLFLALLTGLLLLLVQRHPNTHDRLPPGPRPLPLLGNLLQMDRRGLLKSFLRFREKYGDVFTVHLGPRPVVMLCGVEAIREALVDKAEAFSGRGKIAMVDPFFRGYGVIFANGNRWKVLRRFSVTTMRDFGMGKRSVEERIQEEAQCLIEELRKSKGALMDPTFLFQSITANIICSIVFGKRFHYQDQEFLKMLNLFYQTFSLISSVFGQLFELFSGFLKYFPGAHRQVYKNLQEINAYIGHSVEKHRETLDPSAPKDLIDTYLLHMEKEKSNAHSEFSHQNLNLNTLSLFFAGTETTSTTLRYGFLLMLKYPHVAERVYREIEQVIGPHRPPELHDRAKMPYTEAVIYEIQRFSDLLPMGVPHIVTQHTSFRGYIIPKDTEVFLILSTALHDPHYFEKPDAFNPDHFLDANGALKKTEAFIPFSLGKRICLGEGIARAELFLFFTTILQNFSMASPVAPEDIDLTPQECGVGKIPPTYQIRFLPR
# test-name: in vitro
# condition-label: microsomes, pH 7.4
metric-name: activity at 0.37 µM
Please answer using the number first and the unit second.

Provide one value: measured activity at 0.37 µM of "O=C(O)c1cc(-c2ccc(/C=C3\SC(=S)N(CCc4ccccc4)C3=O)o2)ccc1Cl"
94.2%
